Overview of reported IC50 across a group of compounds:
Target: Glutamate receptor ionotropic, NMDA 2B (Rattus norvegicus)
Sequence (Q00960 whole entry): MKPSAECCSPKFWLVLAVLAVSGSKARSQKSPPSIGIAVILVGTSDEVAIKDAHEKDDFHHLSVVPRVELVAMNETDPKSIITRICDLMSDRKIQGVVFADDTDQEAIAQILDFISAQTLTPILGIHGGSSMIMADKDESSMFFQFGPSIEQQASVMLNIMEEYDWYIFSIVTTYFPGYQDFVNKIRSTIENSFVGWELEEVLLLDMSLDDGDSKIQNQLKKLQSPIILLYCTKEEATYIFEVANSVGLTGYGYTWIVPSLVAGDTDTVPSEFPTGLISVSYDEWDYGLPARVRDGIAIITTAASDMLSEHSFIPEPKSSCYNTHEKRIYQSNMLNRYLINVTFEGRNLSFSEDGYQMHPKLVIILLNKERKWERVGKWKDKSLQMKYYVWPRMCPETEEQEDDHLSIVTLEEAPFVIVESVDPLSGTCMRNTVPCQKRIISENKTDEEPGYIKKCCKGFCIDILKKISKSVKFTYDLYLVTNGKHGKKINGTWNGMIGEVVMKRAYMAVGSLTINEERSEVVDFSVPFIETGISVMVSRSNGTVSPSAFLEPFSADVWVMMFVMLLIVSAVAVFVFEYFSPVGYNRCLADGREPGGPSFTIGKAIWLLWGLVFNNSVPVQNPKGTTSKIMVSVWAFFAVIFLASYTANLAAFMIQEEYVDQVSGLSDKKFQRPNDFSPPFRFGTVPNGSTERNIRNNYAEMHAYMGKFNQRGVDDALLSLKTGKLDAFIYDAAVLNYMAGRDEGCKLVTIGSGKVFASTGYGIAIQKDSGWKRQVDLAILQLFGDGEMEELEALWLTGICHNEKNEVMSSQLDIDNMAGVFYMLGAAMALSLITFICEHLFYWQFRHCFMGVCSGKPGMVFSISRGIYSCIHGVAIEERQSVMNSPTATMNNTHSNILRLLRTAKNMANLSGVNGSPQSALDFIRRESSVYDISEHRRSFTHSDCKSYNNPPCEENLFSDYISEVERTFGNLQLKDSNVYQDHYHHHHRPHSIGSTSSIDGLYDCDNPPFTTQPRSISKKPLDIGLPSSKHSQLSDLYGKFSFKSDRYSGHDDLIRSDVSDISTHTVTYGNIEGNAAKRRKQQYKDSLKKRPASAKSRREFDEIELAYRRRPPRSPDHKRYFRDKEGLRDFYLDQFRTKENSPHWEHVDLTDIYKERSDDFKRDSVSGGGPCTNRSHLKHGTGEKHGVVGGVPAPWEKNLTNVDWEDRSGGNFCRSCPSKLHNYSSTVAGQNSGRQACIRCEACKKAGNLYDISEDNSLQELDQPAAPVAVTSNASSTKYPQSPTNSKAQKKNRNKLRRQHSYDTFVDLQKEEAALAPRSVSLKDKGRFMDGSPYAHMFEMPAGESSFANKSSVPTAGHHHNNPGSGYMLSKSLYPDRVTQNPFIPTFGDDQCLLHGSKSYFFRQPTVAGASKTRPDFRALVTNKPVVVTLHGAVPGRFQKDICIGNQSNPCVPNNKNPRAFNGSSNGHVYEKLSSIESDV
Experiment: Displacement of [3H]-ifenprodil from NR2B receptor in rat brain cerebral cortex membranes incubated for 120 mins by liquid scintillation counting method
Type: cell membranes
State just the number; it will be interpreted in nM.

smiles.text	reported.endpoint	quantitative.result
C[C@@H]1CN(c2ccc(Cl)cc2)CCN1C(=O)C(=O)Nc1ccc2[nH]c(=O)oc2c1	IC50	31.6
O=C(Nc1ccc2[nH]c(=O)oc2c1)C(=O)N1CCN(c2ccc(F)cc2)CC1	IC50	126
C[C@@H]1CN(c2ccc(Cl)c(F)c2)CCN1C(=O)C(=O)Nc1ccc2[nH]c(=O)oc2c1	IC50	12.6

Problem: Any idea what IC50 was measured for C[C@H]1CN(C(=O)C(=O)Nc2ccc3[nH]c(=O)oc3c2)CCN1c1ccc(Cl)cc1 ?
Solution: 631

Problem: Which value of IC50 has been reported for O=C(c1cc(-c2cc[nH]n2)on1)N1CCC(Cc2ccc(F)cc2)CC1 in the records?
Solution: 79.4

Problem: I would be grateful if you could share the reported IC50 for O=C(Nc1ccc2[nH]c(=O)oc2c1)C(=O)N1CCN(c2ccc(C(F)(F)F)c(F)c2)CC1 .
Solution: 15.8
